tested on: Plasmodium falciparum; assay: Antimalarial activity against chloroquine-sensitive Plasmodium falciparum D6 after 48 hrs by [3H]hypoxanthine incorporation assay; format: functional, organism-based
# maps each entry to its IC50

# Compound, IC50
data = [
    ("CC[C@H]1OC(=O)[C@H](C)[C@@H](O)[C@H](C)[C@@H](O[C@@H]2O[C@H](C)C[C@H](N(C)C)[C@H]2O)[C@](C)(O)C[C@@H](C)CN(CCNC(=O)Nc2ccc3ccccc3c2)[C@H](C)[C@@H](O)[C@]1(C)O", "318 nM"),
    ("CC[C@H]1OC(=O)[C@H](C)[C@@H](O[C@H]2C[C@@](C)(OC)[C@@H](O)[C@H](C)O2)[C@H](C)[C@@H](O[C@@H]2O[C@H](C)C[C@H](N(C)C)[C@H]2O)[C@](C)(O)C[C@@H](C)CN(CCCN(CCC#N)C(=S)NCc2ccccc2)[C@H](C)[C@@H](O)[C@]1(C)O", "204 nM"),
    ("CC[C@H]1OC(=O)[C@H](C)[C@@H](O[C@H]2C[C@@](C)(OC)[C@@H](O)[C@H](C)O2)[C@H](C)[C@@H](O[C@@H]2O[C@H](C)C[C@H](N(C)C)[C@H]2O)[C@](C)(O)C[C@@H](C)CN(CCCN(CCC#N)C(=O)NC(C)C)[C@H](C)[C@@H](O)[C@]1(C)O", "> 13400 nM"),
    ("CC[C@H]1OC(=O)[C@H](C)[C@@H](O[C@H]2C[C@@](C)(OC)[C@@H](O)[C@H](C)O2)[C@H](C)[C@@H](O[C@@H]2O[C@H](C)C[C@H](N(C)C)[C@H]2O)[C@](C)(O)C[C@@H](C)CN(CCCNC(=O)NC(C)c2cccc3ccccc23)[C@H](C)[C@@H](O)[C@]1(C)O (some centres undefined)", "292 nM"),
]
